# testMethodNotes: viability loss with induced miR-34 in A549 – imaging, A549 dox-inducible miR-34, nuclei and caspase counts, primary screen (AID 1347080)
# conditionParameters: A549 miR-34 inducible, Hoechst nuclei count, 48 h; stronger effect = lower value; cell number ratio, induced over uninduced
For each record, check the reported fold change: if it is below 0.9 write Y, else write N.

{"compound": "COc1ccc(Cn2ccc3ccc(C(=O)NO)cc32)cc1", "qualitativeLabel": "Y"}
{"compound": "CN(C)c1ccc(C(=O)NCCCCCC(=O)NO)cc1", "qualitativeLabel": "N"}
{"compound": "O=C(Nc1ccc2c(c1)CCN(Cc1ncn[nH]1)C2)c1ccccc1-c1ccc(C(F)(F)F)cc1", "qualitativeLabel": "N"}
{"compound": "CCCCCCCC/C=C\\CCCCCCCC(=O)C(F)(F)F", "qualitativeLabel": "N"}
{"compound": "O=C(O)c1ccc2c(c1)CCCC2", "qualitativeLabel": "N"}
{"compound": "Nc1nc(Nc2ccccc2)nc2c1ncn2[C@@H]1O[C@H](CO)[C@@H](O)[C@H]1O", "qualitativeLabel": "N"}
{"compound": "CO[C@]12C[C@@H](COC(=O)c3cncc(Br)c3)CN(C)[C@@H]1CC1=CN(C)C3C=CC=C2C13 (some centres not stated)", "qualitativeLabel": "N"}
{"compound": "O=C(O)[C@H](Cc1c[nH]c2ccccc12)N1C(=O)c2ccccc2C1=O", "qualitativeLabel": "N"}
{"compound": "CC(C)(C)c1cc(NC(=O)Nc2ccc(-c3cn4c(n3)sc3cc(OCCN5CCOCC5)ccc34)cc2)no1", "qualitativeLabel": "N"}
{"compound": "Nc1cc(C(F)(F)F)c(-c2cc(N3CCOCC3)nc(N3CCOCC3)n2)cn1", "qualitativeLabel": "Y"}
{"compound": "COC(=O)Nc1ccc(-c2nc(N3CCOCC3)c3cnn(C4CCN(C(=O)OC)CC4)c3n2)cc1", "qualitativeLabel": "N"}
{"compound": "Cc1c(C(=O)NN2CCOCC2)nn(-c2ccc(Cl)cc2Cl)c1-c1ccc(I)cc1", "qualitativeLabel": "Y"}
{"compound": "CN(C1CCc2c(c3ccccc3n2CC(=O)O)C1)S(=O)(=O)c1ccc(F)cc1 (configuration not stated)", "qualitativeLabel": "N"}
{"compound": "C[C@]12CC[C@@H]3c4ccc(O)cc4C[C@@H](CCCCCCCCCS(=O)CCCC(F)(F)C(F)(F)F)C3[C@@H]1CC[C@@H]2O (some centres not stated)", "qualitativeLabel": "N"}

---

viability overview
# testMethodNotes: drug combination growth inhibition, ovarian cancer – cell-based, oncology-focused library, rucaparib conditional, profiling panel (AID 1508598)
# conditionParameters: patient-derived ovarian cancer cells, CellTiter-Glo viability, 144 h; at 5 µM; OCI-C5x cells; without rucaparib; stronger effect = lower value
recordedEndpoint: viability (%)

{"molecule": "COc1ccc(C2=NC(c3ccc(Cl)cc3)C(c3ccc(Cl)cc3)N2C(=O)N2CCNC(=O)C2)c(OC(C)C)c1 (stereo not drawn)", "readoutNumber": 104}
{"molecule": "CC[C@H](Nc1ncnc2nc[nH]c12)c1nc2cccc(F)c2c(=O)n1-c1ccccc1", "readoutNumber": 133}
{"molecule": "O=C(/C=C/c1cccc(S(=O)(=O)Nc2ccccc2)c1)NO", "readoutNumber": 5.35}
{"molecule": "Cc1ccc2c(=O)c3cccc(CC(=O)O)c3oc2c1C", "readoutNumber": 123}
{"molecule": "CNC(=O)c1cc(COc2nnc(Nc3ccc(Cl)cc3)c3ccoc23)ccn1", "readoutNumber": 128}
{"molecule": "Cn1cnc(=N)c2[nH]cnc21", "readoutNumber": 125}
{"molecule": "COC(=O)c1ccc2c(C(=Nc3ccc(N(C)C(=O)CN4CCN(C)CC4)cc3)c3ccccc3)c(O)[nH]c2c1", "readoutNumber": 118}
{"molecule": "CN1CCN(c2cccc(Nc3nc4c(-c5ccc(S(C)(=O)=O)cc5)cccn4n3)c2)CC1", "readoutNumber": 206}
{"molecule": "NC(=O)C1CCCc2c1[nH]c1ccc(Cl)cc21 (stereo not drawn)", "readoutNumber": 124}
{"molecule": "CCC(CC)CC1(C(=O)Nc2ccccc2SC(=O)C(C)C)CCCCC1", "readoutNumber": 120}
{"molecule": "O=C(Nc1cn[nH]c1-c1nc2ccc(CN3CCOCC3)cc2[nH]1)NC1CC1", "readoutNumber": 18.2}
{"molecule": "Cc1ccc(C(=O)N(CCCN)[C@@H](c2nc3cc(Cl)ccc3c(=O)n2Cc2ccccc2)C(C)C)cc1", "readoutNumber": 47.8}
{"molecule": "C[C@@H](Oc1cc(-n2cnc3ccc(CN4CCN(C)CC4)cc32)sc1C(N)=O)c1ccccc1C(F)(F)F", "readoutNumber": 3.97}
{"molecule": "O=C(NOC[C@H](O)CO)c1ccc(F)c(F)c1Nc1ccc(I)cc1F", "readoutNumber": 37.4}
{"molecule": "CN(NC(=O)CC(=O)NN(C)C(=S)c1ccccc1)C(=S)c1ccccc1", "readoutNumber": 121}
{"molecule": "CN1CCC(CNc2ccc3ncc(-c4cccc(OC(F)(F)F)c4)n3n2)CC1", "readoutNumber": 115}
{"molecule": "Cc1cc(CS(=O)(=O)c2ccccc2)cc(OCc2ccc(CN3CCC[C@@H]3CO)cc2)c1", "readoutNumber": 122}
{"molecule": "CS(=O)(=O)c1ccc(C(=O)Nc2ccc(Cl)c(-c3ccccn3)c2)c(Cl)c1", "readoutNumber": 149}
{"molecule": "CC[C@@H]1C(=O)N(C)c2cnc(Nc3ccc(C(=O)NC4CCN(C)CC4)cc3OC)nc2N1C1CCCC1", "readoutNumber": 21.9}
{"molecule": "CS(=O)(=O)c1cccc(CNc2nc(Nc3ccc4c(c3)CCC(=O)N4)ncc2C(F)(F)F)c1", "readoutNumber": 59.8}
{"molecule": "CCOc1ccn(-c2ccc(F)cc2)c(=O)c1C(=O)Nc1ccc(Oc2ccnc(N)c2Cl)c(F)c1", "readoutNumber": 135}
{"molecule": "Fc1cc(-c2cccc3ncc(-c4cnn(C5CCNCC5)c4)nc23)cc(F)c1CN1CCOCC1", "readoutNumber": 15.6}
{"molecule": "COc1cc(OC)c(/C=C/S(=O)(=O)Cc2ccc(OC)c(NCC(=O)O)c2)c(OC)c1", "readoutNumber": 29}
{"molecule": "Cc1ccc(C(=O)Nc2ccc(CN3CCN(C)CC3)c(C(F)(F)F)c2)cc1C#Cc1cnc2cccnn12", "readoutNumber": 3.5}
{"molecule": "Cc1ccc([C@@H]2O[C@H](CO)[C@@H](O)[C@H](O)[C@H]2O)cc1Cc1ccc(-c2ccc(F)cc2)s1", "readoutNumber": 129}
{"molecule": "O=C(Nc1ccc(OC(F)(F)F)cc1)c1sccc1NCc1ccnc2ccccc12", "readoutNumber": 117}
{"molecule": "Nc1ccc(C(=O)Nc2cccc(-c3nc(N4CCOCC4)c4oc5ncccc5c4n3)c2)cn1", "readoutNumber": 138}
{"molecule": "Cn1c(=O)c(F)c(Nc2ccc(I)cc2F)c2c(=O)n(C[C@@H](O)CO)cnc21", "readoutNumber": 61.2}
{"molecule": "CCN(CCO)CCCOc1ccc2c(Nc3cc(CC(=O)Nc4cccc(F)c4)[nH]n3)ncnc2c1", "readoutNumber": 95.3}
{"molecule": "Cc1ccc(C(=O)N(CCCN)[C@@H](c2oc3cc(Cl)ccc3c(=O)c2Cc2ccccc2)C(C)C)cc1", "readoutNumber": 4.99}
{"molecule": "CC[C@@H]1C(=O)N(C)c2cnc(Nc3ccc(C(=O)NC4CCC(N5CCN(CC6CC6)CC5)CC4)cc3OC)nc2N1C(C)C (stereo partly drawn)", "readoutNumber": 21.5}
{"molecule": "CCC[C@H](Nc1nc(-c2ccc(NC(=O)NCC)c(OC)c2)ncc1C)c1cccnc1", "readoutNumber": 25.1}
{"molecule": "O=S(=O)(O)CCSSCCS(=O)(=O)O", "readoutNumber": 101}
{"molecule": "CNC(=O)c1ccc(N2C(=S)N(c3ccc(C#N)c(C(F)(F)F)c3)C(=O)C2(C)C)cc1F", "readoutNumber": 108}
{"molecule": "CC(C)n1nc(-c2ccc3oc(N)nc3c2)c2c(N)ncnc21", "readoutNumber": 31.9}
{"molecule": "COc1cc2nccc(Oc3ccc(NC(=O)NC4CC4)c(Cl)c3)c2cc1C(N)=O", "readoutNumber": 111}
{"molecule": "Cn1cc(-c2ccc3nnc(C(F)(F)c4ccc5ncccc5c4)n3n2)cn1", "readoutNumber": 137}
{"molecule": "CN(c1ncccc1CNc1nc(Nc2ccc3c(c2)CC(=O)N3)ncc1C(F)(F)F)S(C)(=O)=O", "readoutNumber": 19.1}

---

# testMethodNotes: viability loss with induced miR-34 in A549 – imaging, A549 dox-inducible miR-34, nuclei and caspase counts, primary screen (AID 1347080)
# conditionParameters: A549 miR-34 inducible, Hoechst nuclei count, 48 h; measured here: total cells without miR-34 induction
Labelling field: enter met if recorded cell count is less than 6000. Enter not met if it equals or exceeds that cut-off.

{"molecule": "O=[N+]([O-])c1cc2nc(O)c(O)nc2cc1[N+](=O)[O-]", "qualitativeLabel": "not met"}
{"molecule": "CNC(=O)c1ccc(C)c(-n2c(C)cc(OCc3ccc(F)cc3F)c(Br)c2=O)c1", "qualitativeLabel": "not met"}
{"molecule": "CCCCCC(=O)CC[C@H]1C(=O)C=C[C@@H]1C/C=C\\CCCC(=O)O", "qualitativeLabel": "met"}
{"molecule": "CN(NC(=O)CC(=O)NN(C)C(=S)c1ccccc1)C(=S)c1ccccc1", "qualitativeLabel": "met"}
{"molecule": "CC[C@@H](C)[C@H]1O[C@]2(CC[C@@H]1C)C[C@@H]1C[C@@H](C/C=C(\\C)[C@@H](O[C@H]3C[C@H](OC)[C@@H](O[C@H]4C[C@H](OC)[C@@H](O)[C@H](C)O4)[C@H](C)O3)[C@@H](C)/C=C/C=C3\\CO[C@@H]4[C@H](O)C(C)=CC(C(=O)O1)[C@]34O)O2 (stereo not given in full) (tested in a mixture with another compound)", "qualitativeLabel": "met"}
